B1: Azoarcus group I ribozyme (parent)
chain: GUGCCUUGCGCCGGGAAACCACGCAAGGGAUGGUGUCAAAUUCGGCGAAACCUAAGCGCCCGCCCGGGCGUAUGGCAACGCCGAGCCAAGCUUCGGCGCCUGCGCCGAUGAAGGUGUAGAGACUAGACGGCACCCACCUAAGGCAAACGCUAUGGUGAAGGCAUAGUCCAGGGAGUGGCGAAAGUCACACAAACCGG

Variants of: B1
procedureSummary: reverse-splicing fitness (ratio to wild type); higher = more active; in vitro selection; Mg2+ level not given
Classify as follows. Reported reverse-splicing fitness greater than or equal to 0.01: fulfilled. Reported reverse-splicing fitness below: not fulfilled.

>  <variantCode>
C82U A111C A120G A145G C150G C169G U176A

>  <assignedCategory>
not fulfilled

$$$$
>  <variantCode>
C82G A111C A120U C150G U176G

>  <assignedCategory>
not fulfilled

$$$$
>  <variantCode>
C82A A120U A145G C169G

>  <assignedCategory>
not fulfilled

$$$$
>  <variantCode>
C82A A111U A120G A145G C169U

>  <assignedCategory>
not fulfilled

$$$$
>  <variantCode>
A120G A145G C150A C169A U176A

>  <assignedCategory>
fulfilled

$$$$
>  <variantCode>
C82U A111G C169A U176A

>  <assignedCategory>
fulfilled

$$$$
>  <variantCode>
C82U A111G A120G A145G C150A C169U U176C

>  <assignedCategory>
fulfilled

$$$$
>  <variantCode>
A111G A120C A145G C169G U176A

>  <assignedCategory>
fulfilled

$$$$
>  <variantCode>
C82A A120C A145U C150A C169G U176C

>  <assignedCategory>
fulfilled

$$$$
>  <variantCode>
C82U U176C

>  <assignedCategory>
fulfilled

$$$$
